# Measurement description: Pharmacokinetic study of GT in DcNPs compared to CrEL (Example 2), plasma G, T and dFdU
# Format: in vivo, BALB/c mice
# Applied conditions: female, BALB/c, mouse, plasma, iv, 50 mg/kg, Control (CrEL suspension); 50/5 mg/kg G/T IV, mice; read-out: Vss
# From the text: Drugs extracted from biological matrices such as plasma or tissue homogenates were quantified by a Shimadzu HPLC system coupled to a 3200 QTRAP mass spectrometer (Applied Biosystems, Grand Island, N.Y.). The HPLC system consisted of two Shimadzu LC-20A pumps, a DGU-20A5 degasser, and a Shimadzu SIL-20AC HT autosampler. The mass spectrometer was equipped with an electrospray ionization (ESI) TurbolonSpray source. […] Analytes were monitored using multiple-reaction monitoring (MRM) for positive ions. […]
Reported metric: Vd (L)
State the answer as a number, implicitly in L.

query: # Vd lookup, item Nc1ccn([C@@H]2O[C@H](CO)[C@@H](O)C2(F)F)c(=O)n1 [Gemcitabine]
result: 0.0166
